# Test system: ryegrass, Italian (Italian ryegrass, Lolium multiflorum)
# METHOD NOTES: Test D controlled growth environment herbicide test, pre- and postemergence
# Format: in vivo
# CONDITION CONTEXT: Preemergence, 125 g ai/ha; scale 0 to 100 (0 no effect, 100 complete control)
METRIC NAME: Plant response rating, Ryegrass, Italian

Examples from the recorded data:
MOLECULE: COC(=O)Oc1c(C)nn(C)c(=O)c1-c1c(C)sc2c(C)cc(C)cc12 [Compound 81]
OBSERVED MEASUREMENT: 85
--
MOLECULE: Cc1ccc(-c2c(O)c(Br)nn(C)c2=O)c2ccccc12 [Compound 52]
OBSERVED MEASUREMENT: 100
--
MOLECULE: CC(=O)Oc1c(Br)nn(C)c(=O)c1-c1c(C)ccc2ccccc12 [Compound 129]
OBSERVED MEASUREMENT: 98
--
MOLECULE: CCOC(=O)Oc1c(C)nn(C)c(=O)c1-c1c(C)ccc2ccccc12 [Compound 73]
OBSERVED MEASUREMENT: 100
--
MOLECULE: Cc1ccc2ccccc2c1-c1c(O)c(C)nn(C)c1=O [Compound 59]
OBSERVED MEASUREMENT: 100

Now consider a different molecule.
The molecule listed as CC(=O)Oc1c(C)nn(C)c(=O)c1-c1ccc(F)c2ccccc12 [Compound 90] has a reported Plant response rating, Ryegrass, Italian of 100
